- System: [3H]-ADMA transport across the blood-brain and blood-CSF barriers
- ASSAY DETAILS: self-inhibition, in situ perfusion: [^3H]-ADMA with 100 μM unlabelled ADMA
- Assay type: in vivo, mouse
- MEASUREMENT CONDITIONS: male, Balb/c, mouse, pituitary gland, other: in situ brain perfusion, with unlabelled ADMA 100 µM, [3H] ADMA + [14C] Sucrose + 100uM un-labelled ADMA, 10 mins, Balb/c ♂, 5ml/min; mean; read-out: uptake into pituitary gland
Structures can show the parent of a compound that is named as a salt.
READOUT: Kp at 10 min, 62.5 nM
Field format: numeric only.

- CN(C)C(N)=NCCC[C@H](N)C(=O)O [ADMA, N^G,N^G-dimethylarginine dihydrochloride]: 0.681

Note: attention shifts to another entry.
Problem: Bench note: what Kp at 10 min, 62.5 nM did OC[C@H]1O[C@@](CO)(O[C@H]2O[C@H](CO)[C@@H](O)[C@H](O)[C@H]2O)[C@@H](O)[C@@H]1O [[^14C]-sucrose, reference compound] show?
Result: 0.0955
